Answer each item with its documented remaining activity at 1 µM.
# Target System: panel of 442 kinases (Homo sapiens, UniProt P07949, V804L)
# Construct: purchased Ambit Biosciences (scanMAXX KINOMEscan)
# Sequence (P07949 29-1114 V804L): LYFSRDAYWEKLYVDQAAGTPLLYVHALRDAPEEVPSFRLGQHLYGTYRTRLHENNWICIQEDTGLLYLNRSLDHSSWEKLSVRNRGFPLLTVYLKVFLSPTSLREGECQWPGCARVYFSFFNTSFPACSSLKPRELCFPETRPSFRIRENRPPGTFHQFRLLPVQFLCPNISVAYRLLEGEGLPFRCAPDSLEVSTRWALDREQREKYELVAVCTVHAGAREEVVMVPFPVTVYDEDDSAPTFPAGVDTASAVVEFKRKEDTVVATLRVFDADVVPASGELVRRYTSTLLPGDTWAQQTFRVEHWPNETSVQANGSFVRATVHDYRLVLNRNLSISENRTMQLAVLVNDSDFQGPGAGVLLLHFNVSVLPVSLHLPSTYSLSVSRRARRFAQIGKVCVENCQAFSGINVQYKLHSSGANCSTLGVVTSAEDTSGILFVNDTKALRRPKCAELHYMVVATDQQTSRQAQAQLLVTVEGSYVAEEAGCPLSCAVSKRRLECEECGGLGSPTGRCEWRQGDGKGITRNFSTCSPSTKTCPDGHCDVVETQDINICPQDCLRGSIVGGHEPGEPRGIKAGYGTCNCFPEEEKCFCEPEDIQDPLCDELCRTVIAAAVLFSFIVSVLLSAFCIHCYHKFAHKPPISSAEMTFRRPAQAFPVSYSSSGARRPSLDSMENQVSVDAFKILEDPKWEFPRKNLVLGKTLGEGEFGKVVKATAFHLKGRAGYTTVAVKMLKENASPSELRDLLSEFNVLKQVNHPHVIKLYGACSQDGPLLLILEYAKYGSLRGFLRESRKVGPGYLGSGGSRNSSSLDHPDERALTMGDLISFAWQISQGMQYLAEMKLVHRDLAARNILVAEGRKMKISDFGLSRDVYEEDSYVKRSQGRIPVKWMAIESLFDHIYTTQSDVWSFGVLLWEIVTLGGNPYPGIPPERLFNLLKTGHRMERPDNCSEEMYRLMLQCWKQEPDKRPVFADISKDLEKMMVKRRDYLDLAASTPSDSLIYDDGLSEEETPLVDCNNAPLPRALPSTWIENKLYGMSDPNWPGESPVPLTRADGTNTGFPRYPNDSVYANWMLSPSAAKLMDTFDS
# Procedure Details: biochemical
# Format: binding
# Assay Context: kinase RET(V804L); 1 µM; read-out: RET(V804L) (% of control at 1 µM)
Output spec: scalar in %, unitless text.

Any idea what remaining activity at 1 µM was measured for `Cn1c(=O)n(-c2ccc(C(C)(C)C#N)cc2)c2c3cc(-c4cnc5ccccc5c4)ccc3ncc21` ?
99

Try this compound next: `Nc1cc(C(F)(F)F)c(-c2cc(N3CCOCC3)nc(N3CCOCC3)n2)cn1`
100

Try this compound next: `COc1ncc(-c2ccc3nccc(-c4ccnnc4)c3c2)cc1NS(=O)(=O)c1ccc(F)cc1F`
99

Try this compound next: `FC(F)c1nc2ccccc2n1-c1nc(N2CCOCC2)nc(N2CCOCC2)n1`
93

###

Answer each item with its documented remaining activity at 1 µM.
# Target System: panel of 442 kinases (Homo sapiens, UniProt O75716)
# Construct: purchased Ambit Biosciences (scanMAXX KINOMEscan)
# Sequence (O75716 whole entry): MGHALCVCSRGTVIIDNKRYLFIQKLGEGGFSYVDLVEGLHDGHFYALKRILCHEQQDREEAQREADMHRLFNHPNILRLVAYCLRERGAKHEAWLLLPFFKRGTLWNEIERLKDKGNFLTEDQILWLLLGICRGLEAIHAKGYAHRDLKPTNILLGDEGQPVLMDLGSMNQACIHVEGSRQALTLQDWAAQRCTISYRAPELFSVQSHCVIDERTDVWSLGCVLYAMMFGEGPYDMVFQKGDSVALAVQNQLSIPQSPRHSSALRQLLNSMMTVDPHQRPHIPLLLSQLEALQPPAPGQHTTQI
# Procedure Details: biochemical
# Type: binding
# Assay Context: kinase STK16; 1 µM; read-out: STK16 (% of control at 1 µM)
Output spec: scalar in %, unitless text.

# value lookup — system panel of 442 kinases (Homo sapiens, UniProt O75716), readout remaining activity at 1 µM, item FC(F)c1nc2ccccc2n1-c1nc(N2CCOCC2)nc(N2CCOCC2)n1 [ZSTK474]
100

Try this compound next: Cn1c(=O)n(-c2ccc(C(C)(C)C#N)cc2)c2c3cc(-c4cnc5ccccc5c4)ccc3ncc21 [Dactolisib]
100

Try this compound next: Nc1cc(C(F)(F)F)c(-c2cc(N3CCOCC3)nc(N3CCOCC3)n2)cn1 [Buparlisib]
100

Try this compound next: COc1ncc(-c2ccc3nccc(-c4ccnnc4)c3c2)cc1NS(=O)(=O)c1ccc(F)cc1F [Omipalisib]
42

###

Answer each item with its documented remaining activity at 1 µM.
# Target System: panel of 442 kinases (Homo sapiens)
# Construct: purchased Ambit Biosciences (scanMAXX KINOMEscan)
# Procedure Details: biochemical
# Format: binding
# Assay Context: CAMK1D; 1 µM; read-out: % of control at 1 µM

Any idea what remaining activity at 1 µM was measured for `FC(F)c1nc2ccccc2n1-c1nc(N2CCOCC2)nc(N2CCOCC2)n1` ?
100%

Try this compound next: `COc1ncc(-c2ccc3nccc(-c4ccnnc4)c3c2)cc1NS(=O)(=O)c1ccc(F)cc1F`
87%

Try this compound next: `Nc1cc(C(F)(F)F)c(-c2cc(N3CCOCC3)nc(N3CCOCC3)n2)cn1`
100%

Try this compound next: `Cn1c(=O)n(-c2ccc(C(C)(C)C#N)cc2)c2c3cc(-c4cnc5ccccc5c4)ccc3ncc21`
87%

###

# Target System: panel of 442 kinases (Homo sapiens)
# Construct: purchased Ambit Biosciences (scanMAXX KINOMEscan)
# Sequence (Q9Y2U5 1-619): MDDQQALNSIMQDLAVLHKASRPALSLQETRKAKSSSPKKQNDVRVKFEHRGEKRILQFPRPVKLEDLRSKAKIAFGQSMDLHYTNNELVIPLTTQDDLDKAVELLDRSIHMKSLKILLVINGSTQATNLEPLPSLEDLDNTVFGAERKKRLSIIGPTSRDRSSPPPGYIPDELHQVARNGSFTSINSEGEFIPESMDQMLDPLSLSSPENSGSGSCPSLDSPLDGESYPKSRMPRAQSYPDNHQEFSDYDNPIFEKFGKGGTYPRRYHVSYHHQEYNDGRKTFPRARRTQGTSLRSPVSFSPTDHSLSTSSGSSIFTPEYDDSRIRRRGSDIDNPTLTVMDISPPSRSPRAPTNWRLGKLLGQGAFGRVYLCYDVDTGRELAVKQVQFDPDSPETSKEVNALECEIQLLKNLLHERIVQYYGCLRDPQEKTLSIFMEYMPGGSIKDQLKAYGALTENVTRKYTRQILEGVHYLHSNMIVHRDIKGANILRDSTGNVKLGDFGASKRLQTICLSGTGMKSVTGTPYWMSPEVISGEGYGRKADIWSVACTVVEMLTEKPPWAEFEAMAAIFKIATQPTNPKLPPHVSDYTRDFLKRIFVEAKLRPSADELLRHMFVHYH
# Procedure Details: biochemical
# Format: binding
# Assay Context: kinase MAP3K2; 1 µM; read-out: % of control at 1 µM
Readout Kind: remaining activity at 1 µM (%)
Output spec: scalar in %, unitless text.

Any idea what remaining activity at 1 µM was measured for `FC(F)c1nc2ccccc2n1-c1nc(N2CCOCC2)nc(N2CCOCC2)n1` ?
74

Try this compound next: `Cn1c(=O)n(-c2ccc(C(C)(C)C#N)cc2)c2c3cc(-c4cnc5ccccc5c4)ccc3ncc21`
72

Try this compound next: `Nc1cc(C(F)(F)F)c(-c2cc(N3CCOCC3)nc(N3CCOCC3)n2)cn1`
100

Try this compound next: `COc1ncc(-c2ccc3nccc(-c4ccnnc4)c3c2)cc1NS(=O)(=O)c1ccc(F)cc1F`
100
